Provide the reported CC50 of each item.
experiment: Cytotoxicity against human IGROV-ET cells after 48 hrs by SRB assay; type: functional; conditions: read-out: LC50 (the source's name)
Give your result in µM as a bare value.

Name the recorded CC50 of the item C/C=C1\NC(=O)[C@H](Cc2ccccc2)NC(=O)[C@@H](C(C)C)NC(=O)[C@@H]([C@H](C)CC)NC(=O)[C@H](NC(=O)[C@H](NC(=O)[C@H](CCCN)NC(=O)[C@H]2CCCN2C(=O)[C@H](NC(=O)[C@@H](NC(=O)[C@@H](NC(=O)[C@H](NC(=O)CCCC(C)C)C(C)C)[C@@H](C)O)C(C)C)C(C)C)[C@H](C)CC)[C@@H](C)OC(=O)[C@H](C(C)C)NC1=O in your answer. 2.13

Name the recorded CC50 of the item C/C=C1\NC(=O)[C@H](Cc2ccccc2)NC(=O)[C@@H](C(C)C)NC(=O)[C@@H]([C@H](C)CC)NC(=O)[C@H](NC(=O)[C@H](NC(=O)[C@H](CCCN)NC(=O)[C@H]2CCCN2C(=O)[C@H](NC(=O)[C@H](C)NC(=O)[C@@H](NC(=O)[C@H](NC(=O)CCCC(C)C)C(C)C)[C@@H](C)O)C(C)C)[C@H](C)CC)[C@H](C)OC(=O)[C@H](C(C)C)NC1=O in your answer. 0.599

Name the recorded CC50 of the item C/C=C1\NC(=O)[C@@H](Cc2ccccc2)NC(=O)[C@H](C(C)C)NC(=O)[C@H]([C@H](C)CC)NC(=O)[C@@H](NC(=O)[C@@H](NC(=O)[C@@H](CCCN)NC(=O)[C@@H]2CCCN2C(=O)[C@@H](NC(=O)[C@H](NC(=O)[C@H](NC(=O)[C@@H](NC(=O)CCCC(C)C)C(C)C)[C@@H](C)O)C(C)C)C(C)C)[C@H](C)CC)[C@H](C)OC(=O)[C@H](C(C)C)NC1=O in your answer. 2.13

====

test system: DU-145; test: Cytotoxicity against human DU145 cells after 48 hrs by SRB assay; format: functional, cell-based; conditions: Homo sapiens, DU-145, 48 h; read-out: LC50 (the source's name)
measurement.label: CC50 (nM)
Give your result in nM as a bare value.

Name the recorded CC50 of the item C=C1NC(=O)[C@H](Cc2ccccc2)NC(=O)[C@@H](C(C)C)NC(=O)[C@@H]([C@H](C)CC)NC(=O)[C@H](NC(=O)[C@H](NC(=O)[C@H](CCCN)NC(=O)[C@H]2CCCN2C(=O)[C@H](NC(=O)[C@@H](NC(=O)[C@@H](NC(=O)[C@H](NC(=O)CCCC(C)C)C(C)C)[C@@H](C)O)C(C)C)C(C)C)[C@H](C)CC)[C@H](C)OC(=O)[C@H](C(C)C)NC1=O in your answer. 730

Name the recorded CC50 of the item C/C=C1\NC(=O)[C@H](Cc2ccccc2)NC(=O)[C@@H](C(C)C)NC(=O)[C@@H]([C@H](C)CC)NC(=O)[C@H](NC(=O)[C@H](NC(=O)[C@H](CCCN)NC(=O)[C@H]2CCCCN2C(=O)[C@H](NC(=O)[C@@H](NC(=O)[C@@H](NC(=O)[C@H](NC(=O)CC[C@@H](C)CC)C(C)C)[C@@H](C)O)C(C)C)C(C)C)[C@H](C)CC)[C@H](C)OC(=O)[C@H](C(C)C)NC1=O in your answer. 1300

Name the recorded CC50 of the item CC[C@@H](C)[C@@H](NC(=O)[C@H](CCCN)NC(=O)[C@H]1CCCN1C(=O)[C@H](NC(=O)[C@@H](NC(=O)[C@@H](NC(=O)[C@H](NC(=O)CCCC(C)C)C(C)C)[C@@H](C)O)C(C)C)C(C)C)C(=O)N[C@H]1C(=O)N[C@H]([C@H](C)CC)C(=O)N[C@H](C(C)C)C(=O)N[C@@H](Cc2ccccc2)C(=O)N/C(=C\c2ccccc2)C(=O)N[C@@H](C(C)C)C(=O)O[C@H]1C in your answer. 893

Name the recorded CC50 of the item C/C=C1\NC(=O)[C@H](Cc2ccc3ccccc3c2)NC(=O)[C@@H](C(C)C)NC(=O)[C@@H]([C@H](C)CC)NC(=O)[C@H](NC(=O)[C@H](NC(=O)[C@H](CCCN)NC(=O)[C@H]2CCCN2C(=O)[C@H](NC(=O)[C@@H](NC(=O)[C@@H](NC(=O)[C@H](NC(=O)CCCC(C)C)C(C)C)[C@@H](C)O)C(C)C)C(C)C)[C@H](C)CC)[C@H](C)OC(=O)[C@H](C(C)C)NC1=O in your answer. 224

Name the recorded CC50 of the item C/C=C1\NC(=O)[C@H](Cc2cccc(Cl)c2)NC(=O)[C@@H](C(C)C)NC(=O)[C@@H]([C@H](C)CC)NC(=O)[C@H](NC(=O)[C@H](NC(=O)[C@H](CCCN)NC(=O)[C@H]2CCCN2C(=O)[C@H](NC(=O)[C@@H](NC(=O)[C@@H](NC(=O)[C@H](NC(=O)CCCC(C)C)C(C)C)[C@@H](C)O)C(C)C)C(C)C)[C@H](C)CC)[C@H](C)OC(=O)[C@H](C(C)C)NC1=O in your answer. 305

Name the recorded CC50 of the item C/C=C1\NC(=O)[C@H](Cc2cccs2)NC(=O)[C@@H](C(C)C)NC(=O)[C@@H]([C@H](C)CC)NC(=O)[C@H](NC(=O)[C@H](NC(=O)[C@H](CCCN)NC(=O)[C@H]2CCCN2C(=O)[C@H](NC(=O)[C@@H](NC(=O)[C@@H](NC(=O)[C@H](NC(=O)CC[C@@H](C)CC)C(C)C)[C@@H](C)O)C(C)C)C(C)C)[C@H](C)CC)[C@H](C)OC(=O)[C@H](C(C)C)NC1=O in your answer. 1070

Name the recorded CC50 of the item C/C=C1\NC(=O)[C@H](Cc2ccccc2)NC(=O)[C@@H](C(C)C)NC(=O)[C@@H]([C@H](C)CC)NC(=O)[C@H](NC(=O)[C@H](NC(=O)[C@H](CCCN)NC(=O)[C@H]2CCCN2C(=O)[C@H](NC(=O)[C@@H](NC(=O)[C@@H](NC(=O)[C@H](NC(=O)C(F)(F)C(F)(F)C(F)(F)C(F)(F)C(F)(F)C(F)(F)F)C(C)C)[C@@H](C)O)C(C)C)C(C)C)[C@H](C)CC)[C@H](C)OC(=O)[C@H](C(C)C)NC1=O in your answer. 708

Name the recorded CC50 of the item C/C=C1\NC(=O)[C@H](Cc2ccccc2)NC(=O)[C@@H](C(C)C)NC(=O)[C@@H]([C@H](C)CC)NC(=O)[C@H](NC(=O)[C@H](NC(=O)[C@H](CCCN)NC(=O)[C@H]2CCCN2C(=O)[C@H](NC(=O)[C@H](CCCN)NC(=O)[C@@H](NC(=O)[C@H](NC(=O)CCCC(C)C)C(C)C)[C@@H](C)O)C(C)C)[C@H](C)CC)[C@H](C)OC(=O)[C@H](C(C)C)NC1=O in your answer. 1440

Name the recorded CC50 of the item C/C=C1\NC(=O)[C@H](Cc2ccccc2)NC(=O)[C@@H](C(C)C)NC(=O)[C@@H]([C@H](C)CC)NC(=O)[C@H](NC(=O)[C@H](NC(=O)[C@H](CCC(=O)O)NC(=O)[C@H]2CCCN2C(=O)[C@H](NC(=O)[C@@H](NC(=O)[C@@H](NC(=O)[C@H](NC(=O)CCCC(C)C)C(C)C)[C@@H](C)O)C(C)C)C(C)C)[C@H](C)CC)[C@H](C)OC(=O)[C@H](C(C)C)NC1=O in your answer. 10200

====

system: DU-145; assay: Cytotoxicity against human DU145 cells after 48 hrs by SRB assay; assay type: functional, cell-based; conditions: Homo sapiens, DU-145, 48 h; read-out: LC50 (the source's name)
Provide the reported CC50 of each item.
Give your result in nM as a bare value.

Name the recorded CC50 of the item C/C=C1\NC(=O)[C@H](Cc2ccc(OC)cc2)NC(=O)[C@@H](C(C)C)NC(=O)[C@@H]([C@H](C)CC)NC(=O)[C@H](NC(=O)[C@H](NC(=O)[C@H](CCCN)NC(=O)[C@H]2CCCN2C(=O)[C@H](NC(=O)[C@@H](NC(=O)[C@@H](NC(=O)[C@H](NC(=O)CC[C@@H](C)CC)C(C)C)[C@@H](C)O)C(C)C)C(C)C)[C@H](C)CC)[C@H](C)OC(=O)[C@H](C(C)C)NC1=O in your answer. 1060

Name the recorded CC50 of the item C/C=C1\NC(=O)[C@H](Cc2ccccc2)NC(=O)[C@@H](C(C)C)NC(=O)[C@@H]([C@H](C)CC)NC(=O)[C@H](NC(=O)[C@H](NC(=O)[C@H](CCCN)NC(=O)[C@H]2CCCN2C(=O)[C@H](NC(=O)[C@@H](NC(=O)[C@@H](NC(=O)[C@@H](CCCN)NC(=O)CCCC(C)C)[C@@H](C)O)C(C)C)C(C)C)[C@H](C)CC)[C@H](C)OC(=O)[C@H](C(C)C)NC1=O in your answer. 1170
